Record form. Attribute: melting point. Fill in for each entry.
Measurement Conditions: a range is the spread between reports

The recorded melting point for entry "CCCCCCCCC" equals -54 to -53 °C

The recorded melting point for entry "O=C(O)C=Cc1ccc(Br)cc1" equals 262 to 263 °C

The recorded melting point for entry "O=S(=O)(Cc1ccccc1)c1ccccc1" equals 146 to 149 °C

The recorded melting point for entry "FC(F)(F)c1ccc(Cl)nc1" equals 31 to 33 °C

The recorded melting point for entry "COC(=O)c1ccc(C)cc1" equals 33.2 to 37 °C

The recorded melting point for entry "COC(=O)c1ccc(O)cc1O" equals 118 to 120 °C

The recorded melting point for entry "CCCCCCCCCCCCCCCCC" equals 21 to 22 °C

The recorded melting point for entry "C#CC(C)(C)O" equals 2.6 to 3 °C

The recorded melting point for entry "Oc1c(Br)cccc1Br" equals 55 to 56.5 °C

The recorded melting point for entry "C[N+](=O)[O-]" equals -29 to -28.5 °C

The recorded melting point for entry "O=C(C[N+](=O)[O-])Nc1ccccc1" equals 93 to 94 °C

The recorded melting point for entry "c1ccc2c(c1)Oc1ccccc1O2" equals 122 °C

The recorded melting point for entry "COc1cc(Cl)c(Cl)c(Cl)c1Cl" equals 84 to 88 °C

The recorded melting point for entry "C=CC=O" equals -87.7 to -87 °C

The recorded melting point for entry "Oc1ccc(Br)cc1Cl" equals 49 to 50.5 °C

The recorded melting point for entry "O=C(O)c1ccc(C(=O)O)s1" equals 358 to 359 °C

The recorded melting point for entry "N#Cc1ccc([N+](=O)[O-])cc1" equals 145 to 149 °C

The recorded melting point for entry "c1ccc2c(c1)Cc1ccccc1C2" equals 108 to 111 °C

The recorded melting point for entry "CC1CCC1" equals -162 °C

The recorded melting point for entry "Nc1ccc(S(=O)(=O)c2ccc(N)cc2)cc1" equals 176 to 177 °C

The recorded melting point for entry "NC(=S)c1c(Cl)cccc1Cl" equals 151 to 152 °C

The recorded melting point for entry "CCNc1ccccc1" equals -64 to -63 °C

The recorded melting point for entry "O=Cc1ccc2ccccc2n1" equals 68 to 71 °C

The recorded melting point for entry "CC(=O)Nc1ccccc1" equals 114 to 115 °C

The recorded melting point for entry "O=C(O)[C@@H]1CCCN1C(=O)OCc1ccccc1" equals 76 to 77 °C

The recorded melting point for entry "O=C(O)Cc1ccc(-c2ccccc2)cc1" equals 160 to 161 °C

The recorded melting point for entry "CCCCCCC=CCCCCCCCC(=O)O" equals -0.1 to 0.5 °C

The recorded melting point for entry "O=C(c1ccccc1)c1cccs1" equals 56 to 57 °C

The recorded melting point for entry "CCCCCc1cc(O)c2c(c1)OC(C)(C)c1ccc(C)cc1-2" equals 76.5 to 77 °C

The recorded melting point for entry "C=C(C)Cl" equals -138 to -137 °C

The recorded melting point for entry "COc1cccc(C(C)=O)c1" equals -8 to -7 °C

The recorded melting point for entry "Nc1c(Cl)cc(Cl)cc1Cl" equals 74 to 78.5 °C

The recorded melting point for entry "ClCc1ccccc1Cl" equals -17 to -13 °C

The recorded melting point for entry C=CCC(C)CC (stereo not drawn) equals -142 to -141 °C

The recorded melting point for entry "N#CCc1cccc(Br)c1" equals 27 to 28 °C

The recorded melting point for entry "FC(Br)(Br)Br" equals -74 to -73.6 °C

The recorded melting point for entry "Nc1ccccc1C(F)(F)F" equals -34 to -29 °C

The recorded melting point for entry "COc1ccccc1OC(=O)c1ccccc1" equals 57.5 to 59 °C

The recorded melting point for entry CC12CCC3c4ccc(O)cc4CCC3C1CCC2O (stereo not drawn) equals 173 to 178 °C

The recorded melting point for entry "BrCCCCCCCCCCCCBr" equals 40 to 41 °C

The recorded melting point for entry NCC(CC(=O)O)c1ccc(Cl)cc1 (stereo not drawn) equals 207 to 208 °C

The recorded melting point for entry "COC(=O)CS(=O)(=O)c1ccccc1" equals 30 to 35 °C

The recorded melting point for entry CC(C)C1(C)N=C(c2ncccc2C(=O)O)NC1=O (stereo not drawn) equals 171 to 172 °C

The recorded melting point for entry "Cc1ccc(N)cc1Br" equals 26 to 27 °C

The recorded melting point for entry "C=Cc1cccc(C(=O)O)c1" equals 95 to 96 °C

The recorded melting point for entry "Cc1ccc(N=C=S)cc1" equals 25 to 25.5 °C

The recorded melting point for entry COC(=O)C1C(OC(=O)c2ccccc2)CC2CCC1N2C (stereo not drawn) equals 93.5 to 98 °C

The recorded melting point for entry "c1ccc(Nc2cccc3ccccc23)cc1" equals 61 to 62 °C

The recorded melting point for entry "CCCCC(=O)c1ccccc1" equals -9.4 to -9 °C

The recorded melting point for entry "OCc1ccc(Cl)cc1" equals 70 to 75 °C

The recorded melting point for entry "O=c1cc(-c2ccccc2)oc2ccccc12" equals 97 to 100 °C

The recorded melting point for entry O=C1CCC(N2C(=O)c3ccccc3C2=O)C(=O)N1 (stereo not drawn) equals 270 to 275 °C

The recorded melting point for entry "COc1cc(NS(=O)(=O)c2ccc(N)cc2)nc(OC)n1" equals 204 °C

The recorded melting point for entry "CCC1CCC1" equals -143 °C

The recorded melting point for entry "Cc1cc(C)c(S(=O)(=O)Cl)c(C)c1" equals 55 to 56 °C

The recorded melting point for entry CC12CCC(C(=O)C1=O)C2(C)C (stereo not drawn) equals 199 to 200 °C

The recorded melting point for entry "CC(C)C(C)(C)O" equals -14 to -10 °C

The recorded melting point for entry "CC(C)(C)CCC(C)(C)C" equals -13 to -12.6 °C

The recorded melting point for entry "O=C(O)Cc1ccc(F)cc1" equals 83 to 86 °C

The recorded melting point for entry "Cc1ccc(O)c(C(C)(C)C)c1" equals 51.5 to 52 °C

The recorded melting point for entry "O=C1CCc2ccccc21" equals 40 to 42 °C

The recorded melting point for entry "N#Cc1c(Cl)cccc1Cl" equals 143 to 145 °C

The recorded melting point for entry "Nc1cccc(CO)c1" equals 93 to 95 °C
